Property: normalized growth; scope: individual molecules
- test details: chemical genetic growth profiling, strain panel (AID 1159580);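 also: tested at 20 µM; growth read once vehicle control cultures reached saturation at 30 °C; 1 = growth at the plate median or of vehicle wells; lower values mean less growth of the strain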
- test parameters: S. cerevisiae deletion strains, growth OD, locus YLR262C, strain YPT6 (second series), hits give low values
In all, about 5,500 compounds went through this assay and about 2,000 (36%) were called active. Roughly 18% stayed inconclusive and do not appear here. The list shows a part of the results. Where a SMILES comes first, the peptide text is derived from it. Side-chain parts run from the residue outwards. [ ]: non-standard residue; d: D form. The star is where a group is joined. X1 = CCC(C)C(N)C1=NC(C(=O)*)CS1; Orn = NCCC[CH](N)C(=O)O

>  <molecule>
CN1CCN(CC(=O)N2c3ccccc3C(=O)Nc3cccnc32)CC1

>  <normalized growth>
0.992

$$$$
>  <molecule>
Cc1onc(-c2ccccc2)c1C(=O)NC1C(=O)N2[C@@H]1SC(C)(C)[C@@H]2C(=O)O (some centres undefined)

>  <normalized growth>
1.05

$$$$
>  <molecule>
CN1CCN(CCC=C2c3ccccc3Sc3ccc(S(=O)(=O)N(C)C)cc32)CC1

>  <normalized growth>
1.11

$$$$
>  <molecule>
CN(C)C(=N)N=C(N)N

>  <normalized growth>
0.987

$$$$
>  <molecule>
CCN(CC)CCNC(=O)c1cc(Cl)c(N)cc1OC

>  <normalized growth>
0.977

$$$$
>  <molecule>
CC(=O)Oc1ccccc1C(=O)O

>  <normalized growth>
0.984

$$$$
>  <molecule>
COc1cc2c(cc1OC)[C@@]13CCN4CC5=CCOC6CC(=O)N2C1[C@H]6[C@H]5C[C@H]43 (some centres undefined)

>  <normalized growth>
0.988

$$$$
>  <molecule>
CC(=O)O[C@H]1CC[C@]2(C)C3CC(=O)[C@]4(C)C(C(C)=O)=CCC4C3CC[C@H]2C1 (some centres undefined)

>  <normalized growth>
0.961

$$$$
>  <molecule>
NC[C@H]1O[C@H](O[C@H]2[C@H](O)[C@@H](O[C@H]3O[C@H](CO)[C@@H](O)[C@H](N)[C@H]3O)[C@H](N)C[C@@H]2N)[C@H](N)C[C@@H]1O

>  <normalized growth>
0.973

$$$$
>  <molecule>
OCCN1CCN(CCCN2c3ccccc3Sc3ccc(C(F)(F)F)cc32)CC1

>  <normalized growth>
1.04

$$$$
>  <molecule>
O=C(CCc1ccc(O)cc1)c1c(O)cc(O)cc1O[C@@H]1O[C@H](CO)[C@@H](O)[C@H](O)[C@H]1O

>  <normalized growth>
1.02

$$$$
>  <molecule>
CC1(C)S[C@@H]2[C@H](NC(=O)[C@H](C(=O)O)c3cccs3)C(=O)N2[C@H]1C(=O)O

>  <normalized growth>
0.996

$$$$
>  <molecule>
CN1CCN(CCCN2c3ccccc3Sc3ccc(C(F)(F)F)cc32)CC1

>  <normalized growth>
0.0947

$$$$
>  <molecule>
CC(=O)OC[C@H]1O[C@@H](Oc2cc(OC(C)=O)c3c(=O)cc(-c4ccc(OC(C)=O)cc4)oc3c2)[C@H](OC(C)=O)[C@@H](OC(C)=O)[C@@H]1OC(C)=O

>  <normalized growth>
0.998

$$$$
>  <molecule>
CCC(C)C(N)C1=NC(C(=O)NC(CC(C)C)C(=O)NC(CCC(=O)O)C(=O)NC(C(=O)NCCCCC2NC(=O)C(CC(N)=O)NC(=O)C(CC(=O)O)NC(=O)C(Cc3cnc[nH]3)NC(=O)C(Cc3ccccc3)NC(=O)C(C(C)CC)NC(=O)C(CCCN)NC2=O)C(C)CC)CS1 (stereo not drawn) (cyclo(DNK([Ile-Glu-Leu-X1])[Orn]IFH); configuration not given here)

>  <normalized growth>
1.01

$$$$
>  <molecule>
CC(=O)O[C@H]1CC[C@]2(C)C3CC[C@@]4(C)C(CC5O[C@@]6(CCC(C)CO6)[C@@H](C)C54)C3CC[C@@H]2C1 (some centres undefined)

>  <normalized growth>
1.01

$$$$
>  <molecule>
CC(C)CC1NC(=O)C(CCCN)NC(=O)C(C(C)C)NC(=O)C2CCCN2C(=O)C(Cc2ccccc2)NC(=O)C(CC(C)C)NC(=O)C(CCCN)NC(=O)C(C(C)C)NC(=O)C2CCCN2C(=O)C(Cc2ccccc2)NC1=O (centres undefined) (cyclo(FPV[Orn]LFPV[Orn]L); configuration not given here)

>  <normalized growth>
0.293

$$$$
>  <molecule>
C[C@]12CCC3C(CC[C@H]4C[C@H](OS(=O)(=O)O)CC[C@]34C)C1CCC2=O (some centres undefined)

>  <normalized growth>
1.04

$$$$
>  <molecule>
C#CC1(O)CCC2C3CCC4=CC(=O)CCC4(C)C3CCC21C (centres undefined)

>  <normalized growth>
1.05

$$$$
>  <molecule>
CN(C)CCc1c[nH]c2ccc(CS(=O)(=O)N3CCCC3)cc12

>  <normalized growth>
1

$$$$
>  <molecule>
CCOc1ccc(C(=O)c2ccc(OC)c(O)c2O)cc1

>  <normalized growth>
0.875

$$$$
>  <molecule>
COc1c2c(cc3c1OCO3)C13C=C[C@H](OC)CC1N(C2)CC3O (some centres undefined)

>  <normalized growth>
1

$$$$
>  <molecule>
COc1cccc(OC)c1C(=O)N[C@@H]1C(=O)N2[C@@H]1SC(C)(C)[C@@H]2C(=O)O

>  <normalized growth>
1

$$$$
>  <molecule>
C#C[C@]1(O)CCC2C3CCC4=Cc5oncc5C[C@]4(C)C3CC[C@@]21C (some centres undefined)

>  <normalized growth>
0.792

$$$$
>  <molecule>
CC(=O)Oc1cccc2c1C(=O)c1c(OC(C)=O)cc(C(=O)O)cc1C2=O

>  <normalized growth>
0.891

$$$$
>  <molecule>
CC1=C(O)C(=O)C=C2C1=CC=C1[C@@]2(C)CC[C@@]2(C)[C@@H]3C[C@](C)(C(=O)O)CC[C@]3(C)CC[C@]12C

>  <normalized growth>
0.149

$$$$
>  <molecule>
COC(=O)[C@]1(C)CC[C@]2(C)CC[C@]3(C)C4=CC=C5C(=CC(=O)C(O)=C5C)[C@]4(C)CC[C@@]3(C)[C@@H]2C1

>  <normalized growth>
0.394

$$$$
>  <molecule>
Cc1onc(-c2c(Cl)cccc2Cl)c1C(=O)N[C@@H]1C(=O)N2[C@@H]1SC(C)(C)[C@@H]2C(=O)O

>  <normalized growth>
0.961

$$$$
>  <molecule>
CC(=O)[O][Hg][c]1ccccc1

>  <normalized growth>
0.0742

$$$$
>  <molecule>
CC(=O)OC1CCC2(C)C3CC(=O)C4(C)C(CC5OC6(CCC(C)CO6)[C@@H](C)C54)C3CC[C@H]2C1 (some centres undefined)

>  <normalized growth>
0.974

$$$$
>  <molecule>
CC(=O)O[C@@H]1CC[C@]2(C)C3CC[C@]4(C)C(=O)CCC4C3CC[C@H]2C1 (some centres undefined)

>  <normalized growth>
0.725

$$$$
>  <molecule>
O=C(CCBr)N1CCN(C(=O)CCBr)CC1

>  <normalized growth>
1.03

$$$$
>  <molecule>
COc1ccc(C(=O)c2ccc(O)cc2)c(O)c1O

>  <normalized growth>
0.936

$$$$
>  <molecule>
NCCc1cc(O)c(O)cc1O

>  <normalized growth>
0.901

$$$$
